test: In vivo pharmacokinetics, plasma LC-MS/MS; settings: male, CD-1, mouse, plasma, iv, 5 mg/kg, IV; 24 hours; read-out: Plasma concentration (IV)
test.readout: concentration at 24 h

{"compound.smiles": "O=S(=O)(NCc1ccc2c(c1)OCO2)c1ccc(Cc2ccc(S(=O)(=O)NCc3ccc4c(c3)OCO4)cc2)cc1", "test.readout": "concentration at 24 h", "reported": "2.62 ng/mL"}

====

assay: In vivo pharmacokinetics, plasma LC-MS/MS; settings: male, CD-1, mouse, plasma, po; mice, 20 mg/kg p.o.; read-out: t1/2 (converted)
test.readout: half-life (h)

{"compound.smiles": "O=S(=O)(NCc1ccc2c(c1)OCO2)c1ccc(Cc2ccc(S(=O)(=O)NCc3ccc4c(c3)OCO4)cc2)cc1", "reported": 8.76}
